Data provenance is paper PMC4081100.

Target: GST-VND7 NAC domain (Arabidopsis thaliana, UniProt Q9C8W9 9-158)
Sequence: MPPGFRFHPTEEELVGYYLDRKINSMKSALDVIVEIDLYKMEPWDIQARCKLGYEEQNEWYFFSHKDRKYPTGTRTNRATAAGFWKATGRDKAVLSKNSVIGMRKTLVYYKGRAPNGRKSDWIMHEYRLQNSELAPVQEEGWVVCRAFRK
Assay: universal protein binding microarray (PBM); transcription factors of Arabidopsis thaliana; high values mean tight binding
Conditions: protein: recombinant; tags: GST; chain copies: 2; dsDNA, one strand shown
readout.label: binding signal (E-score)

{"ordered.residues": "CACGTCAC", "unit.of.measure": "E-score", "numeric.result": 0.395}
{"ordered.residues": "ACGTCACT", "unit.of.measure": "E-score", "numeric.result": 0.328}
{"ordered.residues": "AACACGTT", "unit.of.measure": "E-score", "numeric.result": 0.203}
{"ordered.residues": "AGAGGAAA", "unit.of.measure": "E-score", "numeric.result": 0.0583}
{"ordered.residues": "TACGTCAA", "unit.of.measure": "E-score", "numeric.result": 0.205}
{"ordered.residues": "TAAGTTAA", "unit.of.measure": "E-score", "numeric.result": 0.0557}
{"ordered.residues": "GAAGGAAA", "unit.of.measure": "E-score", "numeric.result": 0.108}
{"ordered.residues": "ACGTCACC", "unit.of.measure": "E-score", "numeric.result": 0.28}
{"ordered.residues": "ACGCTACC", "unit.of.measure": "E-score", "numeric.result": 0.181}
{"ordered.residues": "ATCGCGTA", "unit.of.measure": "E-score", "numeric.result": 0.104}
{"ordered.residues": "ACGCATCC", "unit.of.measure": "E-score", "numeric.result": 0.231}
{"ordered.residues": "TGACTTAA", "unit.of.measure": "E-score", "numeric.result": 0.089}
{"ordered.residues": "GTTGACAA", "unit.of.measure": "E-score", "numeric.result": 0.0726}
{"ordered.residues": "GAGACGTA", "unit.of.measure": "E-score", "numeric.result": 0.413}
{"ordered.residues": "AGGGAAAA", "unit.of.measure": "E-score", "numeric.result": 0.192}
{"ordered.residues": "GCAAGGAA", "unit.of.measure": "E-score", "numeric.result": 0.229}
{"ordered.residues": "AAGGAAAG", "unit.of.measure": "E-score", "numeric.result": 0.117}
{"ordered.residues": "CGTACGCA", "unit.of.measure": "E-score", "numeric.result": 0.341}
{"ordered.residues": "AAGTCATC", "unit.of.measure": "E-score", "numeric.result": 0.11}
{"ordered.residues": "GACACGCA", "unit.of.measure": "E-score", "numeric.result": 0.318}
{"ordered.residues": "ATTACTTC", "unit.of.measure": "E-score", "numeric.result": 0.14}
{"ordered.residues": "CCACGGAA", "unit.of.measure": "E-score", "numeric.result": 0.316}
{"ordered.residues": "GAGGTAAC", "unit.of.measure": "E-score", "numeric.result": 0.0864}
{"ordered.residues": "GTAACGTA", "unit.of.measure": "E-score", "numeric.result": 0.402}
{"ordered.residues": "CCACACGC", "unit.of.measure": "E-score", "numeric.result": 0.181}
{"ordered.residues": "ATTACGTC", "unit.of.measure": "E-score", "numeric.result": 0.357}
{"ordered.residues": "AGCGTAAG", "unit.of.measure": "E-score", "numeric.result": 0.141}
{"ordered.residues": "AATTACGT", "unit.of.measure": "E-score", "numeric.result": 0.46}
{"ordered.residues": "GCACGGCA", "unit.of.measure": "E-score", "numeric.result": 0.461}
{"ordered.residues": "ATACGTTA", "unit.of.measure": "E-score", "numeric.result": 0.146}
{"ordered.residues": "CTTGCTTA", "unit.of.measure": "E-score", "numeric.result": 0.0501}
{"ordered.residues": "AACGTAAG", "unit.of.measure": "E-score", "numeric.result": 0.226}
{"ordered.residues": "CACGCTTC", "unit.of.measure": "E-score", "numeric.result": 0.127}
{"ordered.residues": "AGAGTCAA", "unit.of.measure": "E-score", "numeric.result": 0.0931}
{"ordered.residues": "CCACGTAA", "unit.of.measure": "E-score", "numeric.result": 0.341}
{"ordered.residues": "CAGTCAAA", "unit.of.measure": "E-score", "numeric.result": 0.0973}
{"ordered.residues": "AAGGGTAA", "unit.of.measure": "E-score", "numeric.result": 0.0677}
{"ordered.residues": "GTAGCGTA", "unit.of.measure": "E-score", "numeric.result": 0.267}
{"ordered.residues": "GCAAGTCA", "unit.of.measure": "E-score", "numeric.result": 0.12}
{"ordered.residues": "AATTCCGT", "unit.of.measure": "E-score", "numeric.result": 0.382}
{"ordered.residues": "GCACGTCA", "unit.of.measure": "E-score", "numeric.result": 0.38}
{"ordered.residues": "CACGAAAG", "unit.of.measure": "E-score", "numeric.result": 0.132}
{"ordered.residues": "ATACGCTA", "unit.of.measure": "E-score", "numeric.result": 0.182}
{"ordered.residues": "CCACGCCA", "unit.of.measure": "E-score", "numeric.result": 0.102}
{"ordered.residues": "AAGGAAAT", "unit.of.measure": "E-score", "numeric.result": 0.0723}
{"ordered.residues": "ACGTCTCC", "unit.of.measure": "E-score", "numeric.result": 0.322}
{"ordered.residues": "ACACGCGA", "unit.of.measure": "E-score", "numeric.result": 0.124}
{"ordered.residues": "CTTGCGTA", "unit.of.measure": "E-score", "numeric.result": 0.394}
{"ordered.residues": "AAGTCTAC", "unit.of.measure": "E-score", "numeric.result": 0.0651}
{"ordered.residues": "GTTAAGCA", "unit.of.measure": "E-score", "numeric.result": 0.0676}
{"ordered.residues": "TATACGCA", "unit.of.measure": "E-score", "numeric.result": 0.102}
{"ordered.residues": "GTGACGTA", "unit.of.measure": "E-score", "numeric.result": 0.413}
{"ordered.residues": "AGCACGCA", "unit.of.measure": "E-score", "numeric.result": 0.216}
{"ordered.residues": "CGTATACG", "unit.of.measure": "E-score", "numeric.result": 0.395}
{"ordered.residues": "TAACGTAA", "unit.of.measure": "E-score", "numeric.result": 0.413}
{"ordered.residues": "GGACGCAA", "unit.of.measure": "E-score", "numeric.result": 0.0578}
{"ordered.residues": "ATTCCTTA", "unit.of.measure": "E-score", "numeric.result": 0.064}
{"ordered.residues": "CCACGCAA", "unit.of.measure": "E-score", "numeric.result": 0.337}
{"ordered.residues": "GATGCGTA", "unit.of.measure": "E-score", "numeric.result": 0.186}
{"ordered.residues": "GCACGAAA", "unit.of.measure": "E-score", "numeric.result": 0.145}
{"ordered.residues": "GCAAGAAA", "unit.of.measure": "E-score", "numeric.result": 0.0827}
{"ordered.residues": "AAATTGAC", "unit.of.measure": "E-score", "numeric.result": 0.0875}
{"ordered.residues": "GTTAAGTA", "unit.of.measure": "E-score", "numeric.result": 0.0716}
{"ordered.residues": "ACGCAATG", "unit.of.measure": "E-score", "numeric.result": 0.311}
{"ordered.residues": "ACGTACGC", "unit.of.measure": "E-score", "numeric.result": 0.209}
{"ordered.residues": "CTCACGCA", "unit.of.measure": "E-score", "numeric.result": 0.193}
{"ordered.residues": "ACGTGTAC", "unit.of.measure": "E-score", "numeric.result": 0.206}
{"ordered.residues": "ACAGTCAA", "unit.of.measure": "E-score", "numeric.result": 0.0752}
{"ordered.residues": "GACGCAAA", "unit.of.measure": "E-score", "numeric.result": 0.099}
{"ordered.residues": "CAAGGAAA", "unit.of.measure": "E-score", "numeric.result": 0.181}
{"ordered.residues": "TAAAGCAA", "unit.of.measure": "E-score", "numeric.result": 0.228}
{"ordered.residues": "GCGTAAAA", "unit.of.measure": "E-score", "numeric.result": 0.174}
{"ordered.residues": "ACTAGTCA", "unit.of.measure": "E-score", "numeric.result": 0.0656}
{"ordered.residues": "ATACGTAT", "unit.of.measure": "E-score", "numeric.result": 0.293}
{"ordered.residues": "AAGTAAGT", "unit.of.measure": "E-score", "numeric.result": 0.135}
{"ordered.residues": "GGAGGTAA", "unit.of.measure": "E-score", "numeric.result": 0.0814}
{"ordered.residues": "TACACGCA", "unit.of.measure": "E-score", "numeric.result": 0.385}
{"ordered.residues": "ATGGCGTG", "unit.of.measure": "E-score", "numeric.result": 0.155}
{"ordered.residues": "TAAGGAAA", "unit.of.measure": "E-score", "numeric.result": 0.0908}
{"ordered.residues": "CGTGGTCA", "unit.of.measure": "E-score", "numeric.result": 0.128}
{"ordered.residues": "ACACACGC", "unit.of.measure": "E-score", "numeric.result": 0.213}
{"ordered.residues": "GTTGGTCA", "unit.of.measure": "E-score", "numeric.result": 0.0967}
{"ordered.residues": "ACACGCTA", "unit.of.measure": "E-score", "numeric.result": 0.104}
{"ordered.residues": "AATAGTCA", "unit.of.measure": "E-score", "numeric.result": 0.143}
{"ordered.residues": "GTGAAGAA", "unit.of.measure": "E-score", "numeric.result": 0.288}
{"ordered.residues": "ACGCAAGC", "unit.of.measure": "E-score", "numeric.result": 0.332}
{"ordered.residues": "GAGGAAAA", "unit.of.measure": "E-score", "numeric.result": 0.114}
